- System: GRK4
- CONDITION_INFO: concentration: 1 μM, replicates: in singlicate; n = 1;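 further: KINOMEscan kinase panel screen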
ATTRIBUTE_MEASURED: %Inh
Give your result as the value with the unit written after it.

Some molecules with recorded %Inh:
[
  {
    "MOLECULE": "COC(=O)Nc1nc2ccc(Oc3ccc(CC(=O)Nc4cc(C(F)(F)F)ccc4F)cc3)cc2[nH]1 [GW680903]",
    "%Inh": "0%"
  },
  {
    "MOLECULE": "Cl.N#CCc1ccc(Nc2nccc(Nc3ccc(Oc4ccccc4)cc3)n2)cc1 [GW639905]",
    "%Inh": "0%"
  },
  {
    "MOLECULE": "Cc1cc(-c2ccnc(Nc3cccc(C#N)c3)n2)cc(C)c1O [GSK1440913]",
    "%Inh": "90.7%"
  }
]

Proceed to the following item.
Bench note: what %Inh did CN(C)c1ncnc2nc[nH]c12 [SKF-31736] show?
38%

---

- Tested on: CHEK2
- CONDITION_INFO: concentration: 1 μM, replicates: in singlicate; n = 1
Reported %Inh is given for each of the following compounds.
Give the value, in units of %, as a plain number.

Some compounds with recorded %Inh:
[
  {
    "COMPOUND_SMILES": "Cn1cc(-c2ccc3c(c2)CCN3C(=O)Cc2cc(F)cc(F)c2F)c2c(N)ncnc21",
    "ASSAY_SYSTEM": "CHEK2",
    "UNIT_ABBREV": "%",
    "MEASURED_NUMBER": 0
  },
  {
    "COMPOUND_SMILES": "Cc1ccc(O)cc1Nc1ccnc2cc(-c3ccc(CN4CCCCC4)o3)ccc12",
    "ASSAY_SYSTEM": "CHEK2",
    "UNIT_ABBREV": "%",
    "MEASURED_NUMBER": 0
  }
]

Bench note: what %Inh did `c1ccc(Oc2ccc(Nc3ccnc4cc(-c5ccc(CN6CCCCC6)o5)ccc34)cc2)nc1` show?
74

What do you have for `COc1cccc(NC(=O)NCCNc2ccnc(Nc3ccc(F)cc3)n2)c1` ?
0

What do you have for `CN(c1ccc(NC(=O)N2CCN(CCCN3CCOCC3)CC2)cc1)c1ccnc(Nc2ccc(CS(C)(=O)=O)cc2)n1.Cl` ?
0

What do you have for `N#Cc1cnc2cc(-c3cnc(CNCCN4CCOCC4)s3)ccc2c1Nc1ccc(Oc2ccccc2)cc1` ?
82

What do you have for `Cc1cc(-c2ccnc(Nc3cccc(C#N)c3)n2)cc(C)c1O` ?
0

What do you have for `CN(c1ccc2c(c1)nc(NCc1ccccc1)n2C)c1ccnc(Nc2ccc(CS(C)(=O)=O)cc2)n1.Cl` ?
0

What do you have for `O=C1NC(=O)C(c2ccccc2Cl)=C1Nc1cccc(Cl)c1` ?
0

What do you have for `Fc1cc(Cl)ccc1Nc1ccnc2cc(-c3ccc(CN4CCOCC4)o3)ccc12` ?
46

---

- Test system: ALK
- CONDITION_INFO: concentration: 1 μM, replicates: in singlicate; n = 1
ATTRIBUTE_MEASURED: %Inh (%)
Give the value, in units of %, as a plain number.

[
  {
    "COMPOUND_SMILES": "CN(C)CCNS(=O)(=O)c1ccc(-c2ccnc3[nH]ccc23)cc1",
    "MEASURED_NUMBER": 50
  },
  {
    "COMPOUND_SMILES": "Cc1cccc(Nc2nc(N[C@H]3CCCC[C@H]3N)ncc2C(N)=O)c1.Cl",
    "MEASURED_NUMBER": 61
  },
  {
    "COMPOUND_SMILES": "O=C(Nc1n[nH]c2cc(-c3cccs3)ccc12)C1CC1",
    "MEASURED_NUMBER": 28
  },
  {
    "COMPOUND_SMILES": "Nc1ncc(-c2ccc3nccc(-c4ccncc4)c3c2)cc1S(=O)(=O)N1CCCCC1",
    "MEASURED_NUMBER": 22
  },
  {
    "COMPOUND_SMILES": "Cc1nn2c(=O)cc(N3CCO[C@H](C)C3)nc2n1Cc1cccc(Cl)c1Cl",
    "MEASURED_NUMBER": 22
  }
]

Proceed to the following item.
Bench note: what %Inh did `N#CC1(c2cccc(C(=O)Nc3cccc(Oc4ccc5nc(NC(=O)C6CC6)sc5n4)c3)c2)CC1` show?
15

---

- System: LKB1
- Construct: gene STK11
- CONDITION_INFO: concentration: 1 μM, replicates: in singlicate; n = 1
ATTRIBUTE_MEASURED: %Inh (%)
Give the value, in units of %, as a plain number.

Some compounds with recorded %Inh:
[
  {
    "COMPOUND": "CC(C)c1nc(-c2ccc(F)c(NS(=O)(=O)c3c(F)cccc3F)c2)c(-c2ccnc(Nc3ccc(N4CCOCC4)nc3)n2)s1",
    "ASSAY_SYSTEM": "LKB1",
    "%Inh / %": 0
  },
  {
    "COMPOUND": "Cc1cc(-c2c(-c3ccc(F)cc3)ncn2CCCN2CCOCC2)nc(N)n1",
    "ASSAY_SYSTEM": "LKB1",
    "%Inh / %": 45
  },
  {
    "COMPOUND": "CNc1nccc(-c2ccc3c(N)n[nH]c3c2)n1",
    "ASSAY_SYSTEM": "LKB1",
    "%Inh / %": 5
  },
  {
    "COMPOUND": "Nc1ncc(-c2ccc3nccc(-c4ccncc4)c3c2)cc1S(=O)(=O)N1CCCCC1",
    "ASSAY_SYSTEM": "LKB1",
    "%Inh / %": 0
  },
  {
    "COMPOUND": "COc1cccc(CC(=O)N2CCc3cc(-c4cn(C)c5ncnc(N)c45)ccc32)c1",
    "ASSAY_SYSTEM": "LKB1",
    "%Inh / %": 4
  }
]

Bench note: what %Inh did `CN(c1ccc(NC(=O)N2CCN(CCCN3CCOCC3)CC2)cc1)c1ccnc(Nc2ccc(CS(C)(=O)=O)cc2)n1.Cl` show?
0

What do you have for NCCC(NC(=O)c1cc(Br)c(-c2ccnc3[nH]ccc23)s1)c1ccccc1.O=C(O)C(F)(F)F.O=C(O)C(F)(F)F (stereo not shown) ?
29

What do you have for `Cc1cccc(Nc2nc(N[C@H]3CCCC[C@H]3N)ncc2C(N)=O)c1.Cl` ?
0

What do you have for `Cc1ccc(NC(=O)c2ccnc(N3CCCCC3)c2)cc1-c1ccc(C(=O)NCC2CC2)cc1` ?
34

What do you have for `Cc1ccc(C)c(NC(=O)Nc2ccc(C)c(-c3ccc(C(=O)Nc4ccncc4)cc3)c2)c1` ?
0

---

- Tested on: MST1
- Construct: gene STK4
- CONDITION_INFO: concentration: 1 μM, replicates: in singlicate; n = 1
Respond with yes (1) for %Inh values of 2% and above, no (0) for values below.

Solved entries:
[
  {
    "COMPOUND": "CSc1ccc(NC2=C(c3ccc(Cl)cc3)C(=O)NC2=O)cc1",
    "ASSAY_SYSTEM": "MST1",
    "DISCRETE_LABEL": "yes (1)"
  },
  {
    "COMPOUND": "O=C(Nc1n[nH]c2nc(-c3ccccc3O)ccc12)C1CC1",
    "ASSAY_SYSTEM": "MST1",
    "DISCRETE_LABEL": "no (0)"
  },
  {
    "COMPOUND": "NCCC(NC(=O)c1cc(Br)c(-c2ccnc3[nH]ccc23)s1)c1ccccc1.O=C(O)C(F)(F)F.O=C(O)C(F)(F)F (stereo not drawn)",
    "ASSAY_SYSTEM": "MST1",
    "DISCRETE_LABEL": "no (0)"
  },
  {
    "COMPOUND": "CN1CCN(Cc2ccc(NC(=O)Nc3ccc(N(C)c4ccnc(Nc5ccc(CS(C)(=O)=O)cc5)n4)cc3)cc2)CC1.Cl",
    "ASSAY_SYSTEM": "MST1",
    "DISCRETE_LABEL": "yes (1)"
  },
  {
    "COMPOUND": "CC(C)c1nc(-c2cccc(NS(=O)(=O)c3c(F)cccc3F)c2)c(-c2ccnc(Nc3ccc(N4CCOCC4)nc3)n2)s1.Cl",
    "ASSAY_SYSTEM": "MST1",
    "DISCRETE_LABEL": "no (0)"
  },
  {
    "COMPOUND": "Fc1cc(Cl)ccc1Nc1ccnc2cc(-c3ccc(CN4CCOCC4)o3)ccc12",
    "ASSAY_SYSTEM": "MST1",
    "DISCRETE_LABEL": "no (0)"
  }
]

Determine whether this compound has %Inh no lower than 2%: `Cc1ccc(C)c(NC(=O)Nc2ccc(C)c(-c3ccc(C(=O)Nc4ccncc4)cc3)c2)c1`
no (0)

What do you have for `N#Cc1cnc2cc(-c3cnc(CNCCN4CCOCC4)s3)ccc2c1Nc1ccc(Oc2ccccc2)cc1` ?
yes (1)
